- Protocol notes: thallium influx changes without GIRK channels – cell-based, HEK-293 rmGlu8, no GIRK, thallium flux, counter-screen for GIRK activator project, confirmation (AID 623868);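 note: extra codes mark interference with 3 for fluorescent and 4 for baseline rise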
- Condition set: thallium flux fluorescence, at 10 µM, actives lie on both sides, codes: 1 enhancer, -1 blocker, 0 none, thallium stimulus containing EC20 glutamate
The campaign covered roughly 2,100 compounds. About 760 (36%) were called active.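 Rule for the calls: active = thallium-flux fluorescence traces judged by eye to show enhanced or reduced glutamate response, manual score 1 or -1, so both directions (some results past the limit were not filed as active); inactive = the rest, including fluorescent or raised-baseline compounds.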 A selection follows.
Lab note: assign the record to one of active, inactive

Check out these entries, answers already filled in.
[[record]]
compound = "CCCCN(C)CC(O)Cn1cc(/C=C/C(=O)c2cccs2)c2ccccc21 (configuration not stated)"
cat = "inactive"

[[record]]
compound = "Cc1ccc2nc(-c3ccc(O)cc3)c(Nc3ccc4c(c3)OCCO4)n2c1"
cat = "active"

[[record]]
compound = "Cc1csc(NC(=S)Nc2cccc(Cl)c2)n1"
cat = "active"


Prompt line: Each compound tested received a call. Report the one for `CN(CCNC(=O)c1cc2c(=O)n(C)c3ccccc3c2n1C)Cc1ccccc1` .
Response line: inactive

Prompt line: What outcome does the record of this test show for `CC1CCN(c2ccc(NC(=S)NC(=O)c3ccco3)cc2)CC1` ?
Response line: active

Prompt line: Tell me the assay call for Cc1ccccc1NC1=C(Cl)C(=O)OC1OC(=O)c1ccco1 (configuration not stated) please.
Response line: active

Prompt line: Which outcome was entered for the compound `CC(=O)c1cccc(NC(=S)NC(=O)c2cccc(C)c2)c1` in this test?
Response line: inactive

Prompt line: Per the records of this test, what outcome belongs to `Fc1cccc2sc(Nc3nc4ccccc4s3)nc12` ?
Response line: inactive

Prompt line: Just curious, what result did `O=c1c2cccnc2[nH]c(=S)n1Cc1ccccc1` get here?
Response line: active

Prompt line: Hello, I am checking results. What call was entered for `O=C(Nc1ccc(OCC(=O)N2CCC(Cc3ccccc3)CC2)cc1)c1ccco1` ?
Response line: inactive

Prompt line: Give the logged outcome of this assay for the following compound: `Clc1ccccc1-c1nnc2sc(CCc3ccccc3)nn12`
Response line: inactive

Prompt line: What was the test verdict on O=C(CSc1nc2ccccc2c(=O)n1CC1CCCO1)N1CCN(c2ccccc2)CC1 (configuration not stated) ?
Response line: inactive

Prompt line: Can you look up the reported call for `S=C(NCc1ccc(Cl)cc1Cl)Nc1ccccc1` for me?
Response line: inactive

Prompt line: Recorded test outcome, item `COc1ccc(-c2nn(-c3ccccc3)cc2/C=N/n2cnnc2)cc1OC`
Response line: inactive

Prompt line: Lab log entry: `CC(=O)c1cccc(NC(=S)NC(=O)c2cccc(Cl)c2)c1` — outcome as called in the assay?
Response line: active

Prompt line: Hey, what did the test say about `O=C(CSCCO)Nc1ccccc1` ?
Response line: inactive

Prompt line: Field: outcome | Entry: `CC(=O)Nc1ccc(Oc2ncccn2)cc1`
Response line: inactive

Prompt line: So what was the verdict on `Cn1c(NCc2cccc(Br)c2)nc2ccccc21` in this test?
Response line: inactive

Prompt line: Entry `O=C(Nc1ccncc1)c1ccc2c(c1)C(=O)N(C1CCCCC1)C2=O` : call = ?
Response line: inactive

Prompt line: Give the logged outcome of this assay for the following compound: `Oc1[nH]c2ccccc2c1N=NC(=S)NCCc1ccccc1`
Response line: active

Prompt line: Called result for COc1ccc(C(CCNCc2ccccc2F)c2ccc(F)cc2)cc1 (configuration not stated)
Response line: inactive

Prompt line: For `O=c1c2cc(F)ccc2[nH]c(=S)n1CCCN1CCOCC1` , what call appears in the results of this test?
Response line: inactive

Prompt line: Identify the outcome logged in this assay for the compound shown: `CCCc1ccc(C(=O)N2CCN(c3ccccc3OCC)CC2)cc1`
Response line: active

Prompt line: Dear all, I need the recorded test outcome for `CCOC(=O)c1[nH]c(C)c(C(=O)NC2CCCCC2)c1C` , thank you.
Response line: inactive

Prompt line: Dear colleague, could you share the recorded outcome for Oc1[nH]c2c(Cl)cc(Cl)cc2c1N=NC(=S)NCC1CCCO1 (configuration not stated) when you have a moment?
Response line: active

Prompt line: I would be grateful if you could indicate the recorded call for `CC(C)CNC(=S)NC(=O)c1ccc(Cl)cc1Cl` .
Response line: active

====

- Protocol notes: thallium influx changes without GIRK channels – cell-based, HEK-293 rmGlu8, no GIRK, thallium flux, counter-screen for GIRK activator project, confirmation (AID 623868);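 note: extra codes mark interference with 3 for fluorescent and 4 for baseline rise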
- Condition set: thallium flux fluorescence, at 10 µM, actives lie on both sides, codes: 1 enhancer, -1 blocker, 0 none, thallium stimulus containing EC20 glutamate
The whole screen tested about 2,100 compounds, of which about 760 (36%) were called active. These entries were drawn from the full list.
Measurement name: manual score
The answer should be a number; do not append a unit.

Worked examples follow.
[[record]]
compound = "O=C(NC(=Nc1ccccc1)N1CCOCC1)Nc1ccccc1"
measurement_name = "manual score"
measurement = 0

[[record]]
compound = "CC(C)COn1c(=S)[nH]c2ccccc2c1=O"
measurement_name = "manual score"
measurement = 1

[[record]]
compound = "CC(Oc1ccc2ccccc2c1)C(=O)NNC(=S)NC(=O)c1ccco1 (stereo not drawn)"
measurement_name = "manual score"
measurement = 1

[[record]]
compound = "Cc1cc(CC(C)C)n(-c2nc3ccccc3c(=O)n2OCC(N)=O)n1"
measurement_name = "manual score"
measurement = 0

[[record]]
compound = "Cc1cccn2c(=O)c3cc(C#N)c(=NC(=O)c4cccnc4)n(CC4CCCO4)c3nc12 (stereo not drawn)"
measurement_name = "manual score"
measurement = 3


Prompt line: manual score for COC(=O)c1ccc2c(=O)n(CC3CCCO3)c(=S)[nH]c2c1 (stereo not drawn) ?
Response line: 1

Prompt line: Entry `Cc1ccc(OCC(=O)N/N=C\c2ccc(-c3cccc(C(=O)O)c3)o2)c(C)c1` : reported manual score = ?
Response line: 0

Prompt line: # lookup: manual score of `Clc1ccc(/C=N/Nc2nc(Cl)nc3ccccc23)cc1`
Response line: 0

Prompt line: What value of manual score has been recorded for this entry: `CN=c1scc(-c2cccs2)n1/N=C/c1ccc(O)c(O)c1O`
Response line: 0

Prompt line: For the compound shown here, `Cc1ccc(C)c2[nH]c(=O)c(CN(CCN3CCCC3)C(=O)Nc3ccc(F)cc3)cc12` , give the reported manual score.
Response line: 0

====

- Protocol notes: thallium influx changes without GIRK channels – cell-based, HEK-293 rmGlu8, no GIRK, thallium flux, counter-screen for GIRK activator project, confirmation (AID 623868);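 note: extra codes mark interference with 3 for fluorescent and 4 for baseline rise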
- Condition set: thallium flux fluorescence, at 10 µM, actives lie on both sides, codes: 1 enhancer, -1 blocker, 0 none, thallium stimulus containing EC20 glutamate
Screen size: about 2,100 compounds; about 760 (36%) were called active.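 Rule for the calls: active = thallium-flux fluorescence traces judged by eye to show enhanced or reduced glutamate response, manual score 1 or -1, so both directions (some results past the limit were not filed as active); inactive = the rest, including fluorescent or raised-baseline compounds.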 Only a sample is shown.
Please state which outcome applies, choosing from TRUE = active, FALSE = inactive

Please review the following examples before continuing.
[[record]]
compound = "CC(=O)Nc1ccc(SCC(=O)c2cc(C)n(-c3ccccc3F)c2C)cc1"
cat = "FALSE"

[[record]]
compound = "CCN(CC)c1ccc2c(c1)OC(N)=C(C#N)C2c1cccnc1 (stereo unspecified)"
cat = "FALSE"

[[record]]
compound = "CC1=C(n2nnc3ccccc32)C(c2ccccc2)C(C#N)=C(N)O1 (stereo unspecified)"
cat = "FALSE"

[[record]]
compound = "CC(/C=C/c1ccccc1)=N/NC(=O)c1cc([N+](=O)[O-])cc([N+](=O)[O-])c1"
cat = "FALSE"


Prompt line: What did the test return for `Cc1ccc(/C=N\NC(=O)c2cc([N+](=O)[O-])cc([N+](=O)[O-])c2)o1` ?
Response line: TRUE

Prompt line: What outcome does the record of this test show for Cc1ccc(N=Cc2cc3c(cc2O)OC(N)=C(C#N)C3c2ccccc2)cc1 (stereo unspecified) ?
Response line: TRUE

Prompt line: What did the test return for `COc1cc(NC(=O)C(=O)NNC(=O)C2CCCCC2)c(OC)cc1Cl` ?
Response line: TRUE

Prompt line: Could you kindly confirm the outcome this assay logged for `N#Cc1nc(COc2ccccc2)oc1N1CCN(c2cccc(Cl)c2)CC1` ?
Response line: FALSE

Prompt line: I would be grateful if you could indicate the recorded call for `COc1cc(NC(=O)c2ccc(C)cc2)c(OC)cc1NC(=O)CN1CCCCC1` .
Response line: FALSE

Prompt line: GET /call?item= `CCCCCn1c(NCc2ccco2)nc2ccccc21` returns the recorded outcome of this test.
Response line: FALSE

Prompt line: Test call for this compound, please: CC(C)CCOP(=O)(c1ccc(N(C)C)cc1)C(O)c1ccccn1 (stereo unspecified)
Response line: FALSE

====

- Protocol notes: thallium influx changes without GIRK channels – cell-based, HEK-293 rmGlu8, no GIRK, thallium flux, counter-screen for GIRK activator project, confirmation (AID 623868);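 note: extra codes mark interference with 3 for fluorescent and 4 for baseline rise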
- Condition set: thallium flux fluorescence, at 10 µM, actives lie on both sides, codes: 1 enhancer, -1 blocker, 0 none, thallium stimulus containing EC20 glutamate
Among all 2,100 compounds or so, about 760 (36%) were called active.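 The calls were made as follows: active = thallium-flux fluorescence traces judged by eye to show enhanced or reduced glutamate response, manual score 1 or -1, so both directions (some results past the limit were not filed as active); inactive = the rest, including fluorescent or raised-baseline compounds.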 Not all results are given here.
Answer with one of the outcomes active, inactive

[[record]]
compound = "Cc1c(NC(=S)NC(NC(=O)CC(C)C)C(Cl)(Cl)Cl)c(=O)n(-c2ccccc2)n1C (stereo not given)"
cat = "inactive"

[[record]]
compound = "C=CCOc1cccc(C2/C(=C(/O)c3ccc(C)cc3)C(=O)C(=O)N2CCN2CCOCC2)c1 (stereo not given)"
cat = "inactive"

[[record]]
compound = "CC(Nc1nc(N2CCCCC2)nc2ccccc12)c1ccccc1 (stereo not given)"
cat = "inactive"


Prompt line: // return assay outcome for `CCCn1nc2cc(C(=O)NCCc3ccc(C)cc3)ccc2c1OCC`
Response line: inactive

Prompt line: Hi, sorry to bother you, what did the test record for `COc1ccccc1C(=O)N1c2ccccc2Sc2ccccc21` ?
Response line: active

Prompt line: Kindly provide the recorded test outcome for the following compound: CCc1cc2c(=O)n(CC)c(SC(C)C(=O)Nc3c(C)n(C)n(-c4ccccc4)c3=O)nc2s1 (stereo not given)
Response line: active
